Entries with reported MIC on E. Coli
Answers are plain numbers, in µg/mL.

Previously resolved entries follow.
| molecule | MIC, µg/mL |
| --- | --- |
| COC(=O)CCC(C)[C@H]1CCC2C3C(CC[C@@]21C)[C@@]1(C)CC[C@H](NCCCNCCCCNCCCN)C[C@H]1C[C@H]3O (stereo partly shown) [drawing 60] | 64 |
| CC(C)CCCC(C)[C@H]1CCC2C3C(CC[C@@]21C)[C@@]1(C)CC[C@H](NCCCNCCCCN)C[C@@H]1C[C@H]3O (stereo partly shown) [drawing 57] | 64 |
| CC(CCC(=O)O)[C@H]1CCC2C3C(CC[C@@]21C)[C@@]1(C)CC[C@@H](NCCN)C[C@H]1C[C@H]3O (stereo partly shown) | 64 |

Provide MIC value for the following molecule: COC(=O)CCC(C)[C@H]1CCC2C3CC[C@@H]4C[C@H](NCCN)CC[C@]4(C)C3C[C@H](O)[C@@]21C (stereo partly shown) [drawing 65]
8
